Reference for the values: patent US20260217706A1

Would you mind telling me the reported IL-2 CFC=5/nM of each entry?
# Tested on: anti-CD3 activated human PBMCs
# protocol.description: Effect of compounds on the level of IL-2 secretion by anti-CD3 activated human PBMCs (IL-2 ELISA)
# Type: cell-based
# conditions.used: compound concentration at which fold change in IL-2 = 5; hPBMCs, CD3 antibody 2 μg/mL, 48 h, compound from 3 μM

[Q] Value lookup for IL-2 CFC=5/nM; key = Cn1cnnc1[C@]1(c2cccc(-n3cc(C(F)(F)F)c4cc(CN5CC6CC6C5)[nH]c4c3=O)c2)C[C@H](C)C1 (stereo partly drawn) [Compound T028]
[A] <500 nM

[Q] I am curious: what IL-2 CFC=5/nM value has been reported for Cn1cnnc1[C@]1(c2cccc(-n3cc(C(F)(F)F)c4cc(CN5CC[C@H](F)C5)[nH]c4c3=O)c2)C[C@H](C)C1 [Compound T047] ?
[A] <500 nM

[Q] GET /values?readout=IL-2 CFC=5/nM&item= Cn1cnnc1C1(c2cccc(-n3cc(C(F)(F)F)c4cc(CN5CCCC(C(F)F)C5)[nH]c4c3=O)c2)CCC1 (racemic) [Compound T114]
[A] <500 nM
